Could you please report measured z-score for the items listed next?
- Assay Remarks: osmotic lysis modulators in infected erythrocytes, primary screen, PSAC antagonist project, cell-based, P. falciparum Indochina, OD700, 3 h (AID 1156)
- Experimental Setup: higher = more signal, called active from +8 up or from −8 down
One number for each entry.

# annotated cases, reported z-score shown
Request: Form field: reported z-score of "COC(=O)CC=C[C@@H](C)[C@@H](C=NO[C@@H](C)c1cc(-c2c(C)cc(C)cc2C)no1)OC"
Response: 0.505

Request: And then "COCC1=C2[C@@H](CCc3ccccc3)OB(O)C[C@@H]2n2c(=O)n(-c3ccccc3)c(=O)n2C1" , what is it?
Response: -0.698

Request: And then "[N-]=[N+]=Nc1ccccc1C[C@@]1(C(N)=O)N=C(c2ccc(OCCCO)cc2)O[C@@H]1c1ccccc1" , what is it?
Response: 2.73

Request: And then CS(=O)(=O)CCOC(=O)C1=CC(CCCO)=CC(c2cccs2)N(Cc2cccc(OC(F)(F)F)c2)C=C1C(=O)OCCS(C)(=O)=O (stereo not drawn) , what is it?
Response: 0.813

Request: And then "CCN1C(=O)[C@H]2[C@H]3[C@H](O)[C@H](O)CC(=NOCc4ccccc4)[C@@H]3CC[C@H]2C1=O" , what is it?
Response: -0.0231

Go through the list and state z-score for each entry.
1. O=C1[C@H]2[C@H]3[C@H](O)[C@H](O)CC(=NO[C@@H]4O[C@H](CO)[C@@H](O)[C@H](O)[C@H]4O)[C@@H]3CC[C@H]2C(=O)N1c1ccc(F)cc1F
2. CC(=O)OC[C@H]1O[C@H](CCON=C[C@@H](C)[C@H](OCc2ccccc2)C(C)C)C=C[C@@H]1OC(C)=O
3. CN1C(=O)C2C(C1=O)C1C=C(CCCO)C2C(c2ccc(CN3CCCC3)cc2)N1C (stereo not drawn)

Response:
-0.444
1.01
0.914

----------
- Tgt: Fibroblast growth factor 10 (Homo sapiens)
- Assay Remarks: FGF10 binders on small-molecule microarrays, primary screen, biochemical, small-molecule microarray, 635 nm fluorescence (AID 1102)
- Experimental Setup: FGF10 binding, fluorescence 635 nm, higher = more signal
Response key: rule met means composite z-score >= 0.5; rule not met means composite z-score < 0.5.

Request: Kindly determine if composite z-score recorded for COc1cccc([C@H]2Oc3ccc(OC)cc3C(=NOC(C)CN3CCCc4nc(C)c(C)cc43)[C@@H]2O)c1 (stereo partly specified) is above or exactly 0.5.
Response: rule not met

Request: And then "Cc1ccc(S[C@]2(C(=O)NCC(F)(F)F)CC(=O)N(Cc3ccccc3Cl)[C@@H]2c2ccc(CO)cc2I)cc1" , what is it?
Response: rule not met

Request: And then "CCCC[C@@H]1C[C@H]1[C@@H](NS(=O)(=O)c1cccc2cccnc12)c1ccc(-c2ccccc2)cc1" , what is it?
Response: rule not met

Request: And then CC(C)N1CC=CC23O[C@@H]4C=CCCOC(=O)C4[C@H]2C(=O)N(CCCCCCO)[C@@H]3C1=O (stereo partly specified) , what is it?
Response: rule not met

---
Request: Kindly determine if composite z-score recorded for "COC(=O)[C@@H]1CC[C@H](C)[C@@H](c2ccc(C)cc2)N1C(=O)c1ccc(C=NOC[C@@H](O)COCc2ccco2)cc1" is above or exactly 0.5.
Response: rule not met

Request: And then "COC(=O)c1c(CC[C@@H](CO)NC(=O)N[C@H](Cc2ccccc2)Cn2cc(-c3ccccc3N)nn2)oc(C(C)=O)c1C(=O)OC" , what is it?
Response: rule met

Request: And then "C[C@@H]1C=CCC(=O)OC[C@H](C)C(=O)OC[C@H]2O[C@H]1C=C[C@H]2O" , what is it?
Response: rule met

Request: And then CCN1C(=O)[C@H]2[C@H]3[C@H](O)[C@H](O)CC(=NOC(C)CN4CCCCc5nc(C)c(C)cc54)[C@@H]3CC[C@H]2C1=O (stereo partly specified) , what is it?
Response: rule not met

Request: And then "C=CC[C@@H]1C=C[C@H](ON=C(C)CCN2CCc3nc(CC)c(CC)cc3C2)[C@@H](CO)O1" , what is it?
Response: rule not met

Request: And then CC(CCN1CCc2nc(-c3ccccc3)c(-c3ccccc3)cc2C1)=NOC(C)CN1CCCCc2nc(C)c(C)cc21 (stereo unspecified) , what is it?
Response: rule met

Request: And then CN1C(=O)C2C=CC(C(O)C(c3ccccc3)c3ccccc3)N(NC(=O)OC(C)(C)C)C2C1=O (stereo unspecified) , what is it?
Response: rule met

Request: And then "CCCNC(=O)OC[C@H]1O[C@H](CCON=C[C@@H](OC)[C@H](C)C=CCC(=O)OC)C=C[C@@H]1Oc1ccc(OC)cc1" , what is it?
Response: rule not met

Request: And then "CCOC(=O)C[C@H]1[C@H](OC(=O)c2ccc(C(=O)c3ccccc3)cc2)[C@@H](NC(=O)c2ccc(-c3ccccc3)cc2)c2cc(OCCCO)ccc2N1C(=O)c1ccc2ccccc2n1" , what is it?
Response: rule met

Request: And then CCOC(=O)C1=CCC(c2cc3ccccc3[nH]2)NC1 (stereo unspecified) , what is it?
Response: rule not met

Request: And then "CC(=O)C[C@H](O)[C@@H](NC(=O)OC(C)(C)C)C(C)C" , what is it?
Response: rule not met

Request: And then CS(=O)(=O)CCOC(=O)C1=CC(CCCO)=CC(c2cccs2)N(Cc2cccc(OC(F)(F)F)c2)C=C1C(=O)OCCS(C)(=O)=O (stereo unspecified) , what is it?
Response: rule met

Every entry's value here was drawn from PubChem BioAssay.
